The reported measurements were obtained from patent EP4324461A1.

Test system: S. typhimurium TA1537
TEST: Ames microplate test, TA1537;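 also: reference level is the mean solvent-control yellow wells plus SD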
Type: cell-based, Salmonella typhimurium
EXPERIMENTAL CONTEXT: 0.5 mM, without S9
Here the recorded Increase in the number of yellow wells compared to the reference level is given for each entry.
READOUT: Increase in the number of yellow wells compared to the reference level

MOLECULE	QUANTITATIVE RESULT
O=C(/C=C/c1ccccc1)NCCCCCCO [H-425/21]	0.09
O=C(/C=C/c1ccccc1)NCCCCCO [Compound A-133]	1.07
O=C(/C=C/c1ccc(Cl)cc1)NCCCCCO [Compound A-111]	0.80
CCC(O)CNC(=O)/C=C/c1ccc(Cl)cc1 (stereo not drawn) [Compound A-67]	0.00
Cc1ccc(/C=C/C(=O)NCCCCCO)cc1 [H-415/21]	0.33
CC(CO)NC(=O)/C=C/c1ccc(Cl)cc1 (stereo not drawn) [Compound A-102]	0.33
